# Assay system: PI3K β (p110β/p85α) (Homo sapiens)
# Construct: purchased Upstate / Millipore Corporation
# Sequence (P42338 whole entry): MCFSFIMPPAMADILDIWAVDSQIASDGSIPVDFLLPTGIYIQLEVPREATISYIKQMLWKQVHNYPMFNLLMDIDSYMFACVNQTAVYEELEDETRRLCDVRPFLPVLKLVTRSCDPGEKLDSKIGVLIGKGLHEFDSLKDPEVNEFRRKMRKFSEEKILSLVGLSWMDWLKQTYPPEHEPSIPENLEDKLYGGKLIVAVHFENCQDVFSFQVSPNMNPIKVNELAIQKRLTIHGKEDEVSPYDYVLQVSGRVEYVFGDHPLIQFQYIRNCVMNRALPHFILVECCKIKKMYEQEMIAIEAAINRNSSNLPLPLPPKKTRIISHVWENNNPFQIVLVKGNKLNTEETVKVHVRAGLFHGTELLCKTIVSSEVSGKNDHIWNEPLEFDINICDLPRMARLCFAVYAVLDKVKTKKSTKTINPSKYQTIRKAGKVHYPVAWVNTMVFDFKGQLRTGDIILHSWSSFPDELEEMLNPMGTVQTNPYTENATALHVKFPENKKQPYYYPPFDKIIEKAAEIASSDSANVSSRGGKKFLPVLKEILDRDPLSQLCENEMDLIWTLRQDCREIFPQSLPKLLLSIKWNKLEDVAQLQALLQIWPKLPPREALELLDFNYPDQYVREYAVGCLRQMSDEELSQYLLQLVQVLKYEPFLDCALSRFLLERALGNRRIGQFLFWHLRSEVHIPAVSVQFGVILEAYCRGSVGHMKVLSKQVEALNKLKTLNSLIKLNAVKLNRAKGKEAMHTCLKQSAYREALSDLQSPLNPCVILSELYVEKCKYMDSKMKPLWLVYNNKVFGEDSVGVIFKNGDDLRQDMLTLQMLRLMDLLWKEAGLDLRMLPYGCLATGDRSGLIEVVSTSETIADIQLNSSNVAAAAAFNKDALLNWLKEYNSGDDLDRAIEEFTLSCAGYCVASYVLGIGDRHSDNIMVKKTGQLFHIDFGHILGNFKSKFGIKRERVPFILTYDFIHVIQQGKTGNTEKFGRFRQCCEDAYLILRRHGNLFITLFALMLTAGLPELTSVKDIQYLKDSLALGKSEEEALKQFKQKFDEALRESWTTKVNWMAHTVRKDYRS
# Sequence (P27986 whole entry partner): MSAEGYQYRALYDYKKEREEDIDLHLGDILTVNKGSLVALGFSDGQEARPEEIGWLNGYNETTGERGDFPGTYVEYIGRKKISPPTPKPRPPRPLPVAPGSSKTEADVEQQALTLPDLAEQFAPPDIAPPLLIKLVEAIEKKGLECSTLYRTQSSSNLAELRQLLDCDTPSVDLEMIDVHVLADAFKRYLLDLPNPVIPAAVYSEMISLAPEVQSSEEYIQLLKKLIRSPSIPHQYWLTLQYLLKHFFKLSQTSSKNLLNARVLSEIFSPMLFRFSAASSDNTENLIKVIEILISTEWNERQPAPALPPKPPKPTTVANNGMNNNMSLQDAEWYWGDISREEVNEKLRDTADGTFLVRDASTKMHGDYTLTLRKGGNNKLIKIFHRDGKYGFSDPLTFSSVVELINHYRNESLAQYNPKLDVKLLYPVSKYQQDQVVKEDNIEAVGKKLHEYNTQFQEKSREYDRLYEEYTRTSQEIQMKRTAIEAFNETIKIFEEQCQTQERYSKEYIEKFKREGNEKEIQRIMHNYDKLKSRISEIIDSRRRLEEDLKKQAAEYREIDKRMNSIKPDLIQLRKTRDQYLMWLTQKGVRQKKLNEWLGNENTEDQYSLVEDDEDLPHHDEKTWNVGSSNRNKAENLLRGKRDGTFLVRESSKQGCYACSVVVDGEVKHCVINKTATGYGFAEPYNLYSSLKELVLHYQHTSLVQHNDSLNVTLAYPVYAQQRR
# Assay details: PI 3-Kinase (human) HTRF assay, PI3K β
# Format: biochemical
# Measurement parameters: read-out: PI3K β IC50
Consider the following molecules; for each one, report its IC50.

Sample answers from the record:
> print(dat)
                           molecular.string  meas.value
1  CC1(C)CN(C(=O)c2cnc3ccc(-c4ccc5oc(N)nc5c4)cn23)CCO1     > 10 µM
2  Cc1cc2oc(N)nc2cc1-c1ccc2ncc(N3CCN[C@@H](C)C3)nc2c1      < 1 µM
3  Nc1nc2cc(-c3ccc4ncc(NCCCN5CCOCC5)nc4c3)ccc2o1      < 1 µM

List IC50 for every entry below, keeping the order given.
1. Nc1nc2cc(-c3ccc4ncn(C5CCC5)c(=O)c4c3)ccc2o1
2. Nc1nc2cc(-c3ccc4ncc(N5CC(C(=O)N6CCN(C7CC7)CC6)C5)nc4c3)ccc2o1
3. O=C(c1cnc2ccc(-c3cncc(NS(=O)(=O)c4ccccc4)c3)cn12)N1CCOCC1

1. > 10 µM
2. < 10 µM
3. > 10 µM

List IC50 for every entry below, keeping the order given.
1. CCN(CC)CCNC(=O)c1cnc2ccc(-c3ccc4oc(N)nc4c3)cn12
2. Cn1c(=O)n(-c2ccc(C(C)(C)C#N)cc2)c2c3cc(-c4ccc5oc(N)nc5c4)ccc3ncc21
3. CN1CCN(C(=O)c2cnc3ccc(-c4ccc5oc(N)nc5c4)nn23)CC1

< 1 µM
< 0.1 µM
> 10 µM
